species on record: Rattus norvegicus; assay: Concentration inhibiting norepinephrine uptake in rat brain synaptosomes.; assay type: functional
pKi: −log10 of the molar value.
assay_readout: pKi

• CN(C)Cc1ccccc1Sc1ccc(Cl)cc1CO = 7.26

====

biological target: Sodium-dependent serotonin transporter (Homo sapiens)
Sequence (P31645 whole entry): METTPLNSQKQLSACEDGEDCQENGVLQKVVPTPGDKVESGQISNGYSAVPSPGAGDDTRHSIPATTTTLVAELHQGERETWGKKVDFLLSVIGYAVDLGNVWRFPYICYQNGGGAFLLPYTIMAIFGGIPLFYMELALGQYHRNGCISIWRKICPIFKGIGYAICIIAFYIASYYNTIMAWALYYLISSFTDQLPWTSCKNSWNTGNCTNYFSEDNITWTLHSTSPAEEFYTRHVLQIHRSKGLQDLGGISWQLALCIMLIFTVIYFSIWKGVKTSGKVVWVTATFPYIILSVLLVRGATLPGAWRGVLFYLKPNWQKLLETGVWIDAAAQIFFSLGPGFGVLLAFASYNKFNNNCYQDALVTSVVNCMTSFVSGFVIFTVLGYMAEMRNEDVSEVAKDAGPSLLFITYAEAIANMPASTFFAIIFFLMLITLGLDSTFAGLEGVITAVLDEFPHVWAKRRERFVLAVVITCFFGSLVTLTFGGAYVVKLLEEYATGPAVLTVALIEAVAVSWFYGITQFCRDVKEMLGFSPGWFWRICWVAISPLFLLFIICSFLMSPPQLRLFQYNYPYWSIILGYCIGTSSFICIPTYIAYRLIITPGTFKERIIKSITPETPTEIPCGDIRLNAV
assay_readout: Ki (pM)

- CN(C)Cc1ccccc1Sc1ccc(Br)cc1CO: 520

====

molecular target: Sodium-dependent dopamine transporter (Homo sapiens); test: Concentration inhibiting Dopamine transporter
Sequence (Q01959 whole entry): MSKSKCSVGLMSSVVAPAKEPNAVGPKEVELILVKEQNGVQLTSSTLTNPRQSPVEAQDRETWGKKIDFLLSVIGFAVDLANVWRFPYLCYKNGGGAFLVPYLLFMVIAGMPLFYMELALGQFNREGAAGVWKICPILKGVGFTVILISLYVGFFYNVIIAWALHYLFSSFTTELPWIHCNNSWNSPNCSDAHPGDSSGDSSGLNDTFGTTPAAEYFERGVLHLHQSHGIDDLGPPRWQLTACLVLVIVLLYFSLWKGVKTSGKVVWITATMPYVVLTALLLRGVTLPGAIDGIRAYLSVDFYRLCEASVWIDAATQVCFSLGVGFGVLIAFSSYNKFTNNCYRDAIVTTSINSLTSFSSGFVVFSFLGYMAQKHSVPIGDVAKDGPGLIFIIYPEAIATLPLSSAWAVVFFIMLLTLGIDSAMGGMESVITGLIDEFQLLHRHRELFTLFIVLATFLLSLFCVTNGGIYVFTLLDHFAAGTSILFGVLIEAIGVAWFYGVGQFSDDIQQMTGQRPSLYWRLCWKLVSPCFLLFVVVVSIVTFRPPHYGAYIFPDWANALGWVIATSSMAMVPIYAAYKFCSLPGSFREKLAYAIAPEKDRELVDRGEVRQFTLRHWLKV
assay_readout: Ki

- CSc1ccc([C@H]2CN3CCC[C@H]3c3ccccc32)cc1: 23.5 nM
